- System: KB-3-1
- procedure-text: Cytotoxic Profiling of Annotated Libraries Using Quantitative High-Throughput Screening (AID 1296008); also: % is scaled to controls: 0 for no effect and ±100 for the full control effect; nearly all actives have a fitted effect of over 60% in size
- assay-conditions: Five cell lines viability, CellTiter-Glo ATP luminescence, 48-72 h; active compounds read low
Records with an inconclusive call do not appear. Where a SMILES comes first, the peptide text is derived from it. [ ]: non-standard residue; d: D form. pGlu = O=C1CC[C@@H](C(=O)O)N1; Thz = O=C(O)[C@@H]1CSCN1
Attribute: max response
Quick note: give the figure in %, leave out the unit.

Please review the following examples before continuing.
{"columns": ["compound", "assay-target", "max response [%]"],
 "data": [
  ["CN(C)c1ccc(N=NS(=O)(=O)O)cc1", "KB-3-1", -10.4],
  ["COc1cc(/C=C/C(=O)CC(=O)/C=C/c2ccc(O)c(OC)c2)ccc1O", "KB-3-1", 44.3],
  ["Nc1ccc(O)c(C(=O)O)c1", "KB-3-1", 2.58],
  ["N=c1ccn2c(n1)O[C@H]1[C@H](O)[C@@H](CO)O[C@H]12", "KB-3-1", 33.6],
  ["O=C(O)/C=C/C(O)c1ccc(Cl)cc1 (stereo unspecified)", "KB-3-1", -6.79]
]}

Task: Form field: reported max response of `C[C@H](O)[C@H](O)[C@H]1CNc2nc(N)[nH]c(=O)c2N1`
Result: 14

Task: Entry O=C1CC[C@@H](C(=O)N2CSC[C@H]2C(=O)O)N1 ([pGlu]-[Thz]-OH) please
Result: -5.47

----------
- assay-target: D(1A) dopamine receptor (Homo sapiens) (UniProt P21728)
- Sequence (P21728 whole entry, looked up): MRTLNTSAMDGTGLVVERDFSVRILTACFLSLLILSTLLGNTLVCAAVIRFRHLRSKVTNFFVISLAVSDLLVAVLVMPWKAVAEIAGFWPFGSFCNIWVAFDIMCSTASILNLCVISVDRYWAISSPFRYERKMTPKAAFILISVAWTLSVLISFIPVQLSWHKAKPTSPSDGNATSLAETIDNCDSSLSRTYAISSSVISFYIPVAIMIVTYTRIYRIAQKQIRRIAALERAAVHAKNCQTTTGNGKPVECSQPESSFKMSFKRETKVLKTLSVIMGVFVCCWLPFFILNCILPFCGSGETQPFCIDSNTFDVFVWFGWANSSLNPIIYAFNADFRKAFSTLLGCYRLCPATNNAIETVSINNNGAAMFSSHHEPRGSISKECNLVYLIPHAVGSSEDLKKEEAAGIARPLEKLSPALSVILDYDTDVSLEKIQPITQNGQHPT
- procedure-text: HTS Assay for Allosteric Agonists of the Human D1 Dopamine Receptor: Primary Screen for Agonists (AID 488981); as to activation: 0% is about no effect
- assay-conditions: Inducible HEK293 T-REx D1 cells, calcium-flux fluorescence, 180 s kinetic; series mostly up to 41.8 µM
Inconclusive results are not listed. The source made the active and inactive calls. Calls come from the whole dose curve; as a rule, active = well fitted activation curve with a large enough effect; inconclusive = small, poorly fitted or top-dose-only effect; inactive = flat fitted curve, though single readings scatter.
Thanks in advance; please answer with one of these: active, inactive

These recorded examples may help you get a feel for the data.
{"columns": ["compound", "assigned-category"],
 "data": [
  ["NC(=O)C(=O)O", "inactive"],
  ["N#C/C(=C\\c1ccc(O)c(O)c1)C(=O)c1ccc(O)c(O)c1", "inactive"],
  ["CN1CCC[C@H]1c1cccnc1", "inactive"],
  ["Cc1ccc(O)c(N=Nc2ccccc2)n1", "inactive"],
  ["O=S(=O)(c1cccc2c(I)cccc12)N1CCCNCC1", "active"]
]}

Task: Could you please tell me the result logged for `Nc1nc(Cl)nc2c1ncn2[C@@H]1O[C@H](CO)[C@@H](O)[C@H]1O` in this assay?
Result: inactive

Task: Entry CO/S(=N\S(=O)(=O)c1ccc(Cl)cc1)c1ccc([N+](=O)[O-])cc1 (stereo not given) please
Result: inactive

----------
- procedure-text: MultiTox-Fluor Cytotoxicity Assay - LYMP1-002 - Dead Cells (AID 960); also: nearly all actives have a fitted effect of over 60% in size
- assay-conditions: LYMP1-002 lymphoblastoid cells, dead-cell protease fluorescence; series mostly up to 46.1 µM
Inconclusive results are not listed. The source made the active and inactive calls. The call rests on the fitted dose curve; in most records, active means well fitted cell-killing curve with a large enough effect; inconclusive means small, poorly fitted or top-dose-only effect, or effect the other way; inactive means no such curve, though single readings can be large or run the other way.
Thanks in advance; please answer with one of these: active, inactive

{"columns": ["compound", "assigned-category"],
 "data": [
  ["O=C1CN(/N=C/c2ccc([N+](=O)[O-])o2)C(=O)N1", "inactive"],
  ["CCCOC(=O)c1ccc(O)cc1", "inactive"],
  ["CN(C)c1ccc(C(=C2C=CC(=[N+](C)C)C=C2)c2ccccc2)cc1", "active"],
  ["c1cnc2c(c1)ccc1cccnc12", "inactive"],
  ["c1ccc2sc(SSc3nc4ccccc4s3)nc2c1", "inactive"],
  ["Nc1nc2ccc([N+](=O)[O-])cc2s1", "inactive"],
  ["O=C(O)/C=C\\C(=O)O", "inactive"],
  ["O=c1cc(-c2ccccc2)oc2ccccc12", "inactive"],
  ["Nc1ccc([N+](=O)[O-])cc1O", "inactive"],
  ["CN1CCC[C@H]1c1cccnc1", "inactive"]
]}

Let us examine a further case.
Task: Could you please tell me the result logged for CN(C)CCC(c1ccc(Cl)cc1)c1ccccn1 (stereo unspecified) in this assay?
Result: inactive
